Test system: CP252
Assay: qHTS profiling for inhibitors of Plasmodium falciparum proliferation (AID 504749); further: nearly all actives have a fitted effect of over 60% in size
Conditions: P. falciparum in erythrocytes, SYBR Green DNA, 72 h; series mostly up to 28.7 µM
Protocol: NIH National Institute of Allergy and Infectious Diseases [NIAID] NIH Chemical Genomics Center [NCGC] […] Because mature erythrocytes lack DNA, only Plasmodium-derived DNA is detected. NCGC Assay Protocol Summary: The SYBR Green viability assay was adapted from a method described previously (Plouffe et al., 2008). […] The following morning, fluorescence intensity at 485(14) nm excitation and 535(25) nm emission wavelengths was measured on an EnVision (Perkin Elmer) plate reader. […]
Records with an inconclusive call do not appear. Active and inactive are the calls of the source. The call rests on the fitted dose curve; in most records, active means well fitted inhibition curve with a large enough effect; inconclusive means small, poorly fitted or top-dose-only effect; inactive means flat fitted curve, though single readings scatter.
Outcomes: Y (active), N (inactive)

[
  {
    "Molecule": "C/C(=C(/CCO)SS/C(CCO)=C(\\C)N(C=O)Cc1cnc(C)nc1N)N(C=O)Cc1cnc(C)nc1N",
    "Assigned category": "N"
  },
  {
    "Molecule": "CCCCC(=O)OC1CCC2C3CCc4cc(O)ccc4C3CC[C@]12C (stereo partly specified)",
    "Assigned category": "N"
  },
  {
    "Molecule": "C#C[C@]1(O)CC[C@H]2[C@H]3[C@H](CC[C@@]21C)C1=C(CC(=O)CC1)C[C@@H]3C",
    "Assigned category": "N"
  },
  {
    "Molecule": "CO[C@H]1/C=C/O[C@@]2(C)Oc3c(C)c(O)c4c(O)c(c5c(c4c3C2=O)NC2(CCN(CC(C)C)CC2)N=5)=NC(=O)/C(C)=C\\C=C\\[C@H](C)[C@H](O)[C@@H](C)[C@@H](O)[C@@H](C)[C@H](OC(C)=O)[C@@H]1C",
    "Assigned category": "Y"
  },
  {
    "Molecule": "CC1OC(OC2C(O)CC(OC3C(O)CC(OC4CCC5(C)C(CCC6C5CCC5(C)C(C7=CC(=O)OC7)CCC65O)C4)OC3C)OC2C)CC(O)C1O (stereo unspecified)",
    "Assigned category": "N"
  },
  {
    "Molecule": "CN(C)CC[C@@](O)(c1ccccc1)c1ccccc1Cl",
    "Assigned category": "Y"
  },
  {
    "Molecule": "CC12C=CC(=O)C=C1[C@@H](F)CC1C2C(O)CC2(C)C1CC[C@]2(O)C(=O)CO (stereo partly specified)",
    "Assigned category": "N"
  },
  {
    "Molecule": "OCC1O[C@H](O[C@H]2C(O)C(O)C(O)O[C@@H]2CO)C(O)C(O)C1O (stereo partly specified)",
    "Assigned category": "N"
  },
  {
    "Molecule": "CC1(C)C2CC[C@]1(C)[C@@H](O)C2",
    "Assigned category": "N"
  },
  {
    "Molecule": "Clc1ccc(CS[C@@H](Cn2ccnc2)c2ccc(Cl)cc2Cl)cc1",
    "Assigned category": "Y"
  },
  {
    "Molecule": "C[C@]12CCC(=O)C=C1[C@@H]1C[C@H]1[C@H]1[C@@H]3[C@@H]4C[C@H]4[C@@]4(CCC(=O)O4)[C@@]3(C)CC[C@@H]12",
    "Assigned category": "N"
  },
  {
    "Molecule": "C=C1/C(=C\\C=C2/CCC[C@]3(C)[C@@H]([C@H](C)/C=C/[C@@H](O)C4CC4)CC[C@@H]23)C[C@@H](O)C[C@@H]1O",
    "Assigned category": "N"
  },
  {
    "Molecule": "CC1(C)OC[C@@H]2O[C@@]3(C(=O)O)OC(C)(C)O[C@@H]3[C@@H]2O1",
    "Assigned category": "N"
  },
  {
    "Molecule": "COc1ccc(C(=O)/C(Br)=C/C(=O)O)cc1",
    "Assigned category": "N"
  },
  {
    "Molecule": "CO/N=C(/C(=O)N[C@@H]1C(=O)N2C(C(=O)O)=C(CSC(=O)c3ccco3)CSC12)c1csc(N)n1 (stereo partly specified)",
    "Assigned category": "N"
  },
  {
    "Molecule": "C=C[C@@]1(C)C[C@H](OC(=O)CSC(C)(C)CNC(=O)[C@@H](N)C(C)C)[C@@]2(C)C(C)CC[C@@]3(CCC(=O)[C@@H]32)[C@H](C)[C@H]1O (stereo partly specified)",
    "Assigned category": "Y"
  }
]
